# test.target: h-Sortilin (Homo sapiens)
# Sequence (Q99523 78-831): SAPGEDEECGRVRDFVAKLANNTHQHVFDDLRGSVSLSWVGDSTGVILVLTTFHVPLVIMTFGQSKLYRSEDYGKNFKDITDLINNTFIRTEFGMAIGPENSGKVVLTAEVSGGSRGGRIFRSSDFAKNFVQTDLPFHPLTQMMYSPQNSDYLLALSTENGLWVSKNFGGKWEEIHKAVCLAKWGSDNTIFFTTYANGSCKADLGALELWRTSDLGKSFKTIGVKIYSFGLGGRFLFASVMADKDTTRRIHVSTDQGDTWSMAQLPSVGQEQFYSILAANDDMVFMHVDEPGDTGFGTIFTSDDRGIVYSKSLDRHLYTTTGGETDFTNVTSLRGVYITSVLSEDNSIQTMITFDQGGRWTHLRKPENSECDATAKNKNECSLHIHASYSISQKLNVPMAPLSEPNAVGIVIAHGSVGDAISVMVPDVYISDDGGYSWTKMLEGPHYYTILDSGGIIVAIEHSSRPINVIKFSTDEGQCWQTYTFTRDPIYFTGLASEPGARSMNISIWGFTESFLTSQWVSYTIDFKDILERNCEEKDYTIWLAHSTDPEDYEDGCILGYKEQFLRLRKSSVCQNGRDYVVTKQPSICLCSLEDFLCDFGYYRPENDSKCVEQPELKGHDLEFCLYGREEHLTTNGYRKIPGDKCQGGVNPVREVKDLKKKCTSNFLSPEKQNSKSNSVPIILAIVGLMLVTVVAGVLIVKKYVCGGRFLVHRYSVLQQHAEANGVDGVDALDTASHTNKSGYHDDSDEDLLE
assay.metric: IC50 (nM)

compound	numeric.value
CC(C)(C)CCC(Nc1ccccn1)c1nn[nH]n1 (racemic) [Example 68]	10000
CC(C)(C)CC[C@H](Nc1ncccn1)C(=O)O [Example 5]	1190
CC(C)(C)CC[C@H](Nc1cncc(Oc2ccccc2)n1)C(=O)O [Example 28]	670
CC(C)(C)CC[C@H](Nc1cncnc1)C(=O)O [Example 6]	1240
CC(C)(C)CC[C@H](Nc1ccncn1)C(=O)O [Example 7]	1140
Cc1cc(N[C@@H](CCC(C)(C)C)C(=O)O)nc(C)n1 [Example 25]	1560
